target: T1, Human CD137 ECD (human); experiment: Biacore SPR, vs parent H183/L072
T1 construct: entry includes C-terminal His-tag and biotin acceptor peptide; also called human CD137 extracellular domain; 4-1BB
T1 sequence (chain, as listed by the source limits assumed): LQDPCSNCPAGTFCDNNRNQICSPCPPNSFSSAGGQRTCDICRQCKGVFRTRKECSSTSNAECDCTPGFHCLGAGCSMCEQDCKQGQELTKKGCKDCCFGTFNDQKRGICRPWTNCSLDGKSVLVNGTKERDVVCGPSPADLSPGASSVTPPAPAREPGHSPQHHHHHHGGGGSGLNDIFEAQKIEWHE
Quantity Kind: fold change of affinity (fold)
Give the number; fold is assumed, so skip it.

A selection of reference data follows.
H183/L072 VL M27eF (antibody, name in Kabat numbering, V domains shown, Dual-Ig) VH: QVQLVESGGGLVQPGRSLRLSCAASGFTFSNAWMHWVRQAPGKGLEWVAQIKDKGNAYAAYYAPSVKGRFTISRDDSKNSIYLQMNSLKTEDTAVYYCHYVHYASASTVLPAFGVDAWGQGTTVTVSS VL: DIVMTQSPLSLPVTPGEPASISCQASQELVHFNRNTYLHWYQQKPGQAPRLLIYKVSNRFPGVPDRFSGSGSGTDFTLKISRVEAEDVGVYYCAQGTSVPFTFGQGTKLEIK | 0.7
H183/L072 VL E27aM (antibody, name in Kabat numbering, V domains shown, Dual-Ig) VH: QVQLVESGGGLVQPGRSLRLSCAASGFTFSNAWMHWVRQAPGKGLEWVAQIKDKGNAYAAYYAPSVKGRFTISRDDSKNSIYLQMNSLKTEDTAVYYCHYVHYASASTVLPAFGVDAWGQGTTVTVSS VL: DIVMTQSPLSLPVTPGEPASISCQASQMLVHMNRNTYLHWYQQKPGQAPRLLIYKVSNRFPGVPDRFSGSGSGTDFTLKISRVEAEDVGVYYCAQGTSVPFTFGQGTKLEIK | 0.9
H183/L072 VL H27dW (antibody, name in Kabat numbering, V domains shown, Dual-Ig) VH: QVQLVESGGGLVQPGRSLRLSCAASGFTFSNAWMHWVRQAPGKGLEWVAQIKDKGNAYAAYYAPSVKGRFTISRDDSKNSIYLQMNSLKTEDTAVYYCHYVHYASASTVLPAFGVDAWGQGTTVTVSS VL: DIVMTQSPLSLPVTPGEPASISCQASQELVWMNRNTYLHWYQQKPGQAPRLLIYKVSNRFPGVPDRFSGSGSGTDFTLKISRVEAEDVGVYYCAQGTSVPFTFGQGTKLEIK | 0.5
H183/L072 VL S26D (antibody, name in Kabat numbering, V domains shown, Dual-Ig) VH: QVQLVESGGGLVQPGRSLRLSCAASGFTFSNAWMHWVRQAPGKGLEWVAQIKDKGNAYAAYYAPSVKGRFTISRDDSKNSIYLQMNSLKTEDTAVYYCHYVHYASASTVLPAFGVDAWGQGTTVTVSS VL: DIVMTQSPLSLPVTPGEPASISCQADQELVHMNRNTYLHWYQQKPGQAPRLLIYKVSNRFPGVPDRFSGSGSGTDFTLKISRVEAEDVGVYYCAQGTSVPFTFGQGTKLEIK | 0.8
H183/L072 VL N30Y (antibody, name in Kabat numbering, V domains shown, Dual-Ig) VH: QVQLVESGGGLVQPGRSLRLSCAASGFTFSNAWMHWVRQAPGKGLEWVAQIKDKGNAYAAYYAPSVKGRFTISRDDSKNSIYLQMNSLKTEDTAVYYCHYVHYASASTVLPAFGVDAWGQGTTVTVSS VL: DIVMTQSPLSLPVTPGEPASISCQASQELVHMNRYTYLHWYQQKPGQAPRLLIYKVSNRFPGVPDRFSGSGSGTDFTLKISRVEAEDVGVYYCAQGTSVPFTFGQGTKLEIK | 0.6
H183/L072 VL S52T (antibody, name in Kabat numbering, V domains shown, Dual-Ig) VH: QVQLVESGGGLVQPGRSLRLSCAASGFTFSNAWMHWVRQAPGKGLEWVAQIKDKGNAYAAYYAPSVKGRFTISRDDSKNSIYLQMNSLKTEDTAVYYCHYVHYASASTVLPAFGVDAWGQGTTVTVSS VL: DIVMTQSPLSLPVTPGEPASISCQASQELVHMNRNTYLHWYQQKPGQAPRLLIYKVTNRFPGVPDRFSGSGSGTDFTLKISRVEAEDVGVYYCAQGTSVPFTFGQGTKLEIK | 1

// fold change of affinity value for H183/L072 VL T92P (antibody, name in Kabat numbering, V domains shown, Dual-Ig) VH: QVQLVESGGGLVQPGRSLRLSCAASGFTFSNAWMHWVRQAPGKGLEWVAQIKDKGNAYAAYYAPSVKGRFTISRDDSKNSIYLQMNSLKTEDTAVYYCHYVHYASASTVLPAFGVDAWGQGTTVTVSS VL: DIVMTQSPLSLPVTPGEPASISCQASQELVHMNRNTYLHWYQQKPGQAPRLLIYKVSNRFPGVPDRFSGSGSGTDFTLKISRVEAEDVGVYYCAQGPSVPFTFGQGTKLEIK : 0

Notebook: H183/L072 VL A25I (antibody, name in Kabat numbering, V domains shown, Dual-Ig) VH: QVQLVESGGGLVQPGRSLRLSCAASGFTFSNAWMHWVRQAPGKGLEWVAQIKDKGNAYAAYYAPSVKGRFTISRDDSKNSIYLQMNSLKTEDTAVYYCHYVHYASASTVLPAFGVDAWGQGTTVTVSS VL: DIVMTQSPLSLPVTPGEPASISCQISQELVHMNRNTYLHWYQQKPGQAPRLLIYKVSNRFPGVPDRFSGSGSGTDFTLKISRVEAEDVGVYYCAQGTSVPFTFGQGTKLEIK , fold change of affinity read as 0.2

Input H183/L072 VL R54H (antibody, name in Kabat numbering, V domains shown, Dual-Ig) VH: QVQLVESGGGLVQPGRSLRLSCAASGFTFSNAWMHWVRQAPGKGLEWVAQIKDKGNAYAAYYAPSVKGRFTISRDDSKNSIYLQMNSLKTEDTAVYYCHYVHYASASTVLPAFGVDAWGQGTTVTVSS VL: DIVMTQSPLSLPVTPGEPASISCQASQELVHMNRNTYLHWYQQKPGQAPRLLIYKVSNHFPGVPDRFSGSGSGTDFTLKISRVEAEDVGVYYCAQGTSVPFTFGQGTKLEIK . Output fold change of affinity: 0.6

Note to self: fold change of affinity recorded for H183/L072 VL H27dY (antibody, name in Kabat numbering, V domains shown, Dual-Ig) VH: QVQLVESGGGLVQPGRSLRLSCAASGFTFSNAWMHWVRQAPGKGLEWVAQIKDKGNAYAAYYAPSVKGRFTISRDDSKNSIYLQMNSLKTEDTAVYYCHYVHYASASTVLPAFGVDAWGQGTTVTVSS VL: DIVMTQSPLSLPVTPGEPASISCQASQELVYMNRNTYLHWYQQKPGQAPRLLIYKVSNRFPGVPDRFSGSGSGTDFTLKISRVEAEDVGVYYCAQGTSVPFTFGQGTKLEIK was 0.5
